So I've got a bunch of compounds here, and I need their Population Mitotic Cells (%) values.
test system: HEK-293T; test: Multiplex assay against HEK293T; format: toxicity, cell-based; details: human, 24 h, 10 µM, compound concentration 10 uM, replicate 1
Answers are plain numbers, in %.

> print(dat)
                                   compound                property.label  reported
1  Cc1ccc(C(=O)Nc2cccc(C(F)(F)F)c2)cc1Nc1nc(-c2cccnc2)nc2c1cnn2C  Population Mitotic Cells (%)        10
2  CCCS(=O)(=O)c1nc(NC2CC2)cc(-c2ccc3c(ccn3C3CC(C)(C)NC(C)(C)C3)c2)n1  Population Mitotic Cells (%)        39
3  O=C(Nc1ccc(Cl)cc1)Nc1cccc(-c2cccc(N3CCCC3)n2)c1  Population Mitotic Cells (%)        14
4  COc1cc2ncnc(Nc3ccc(F)c(Cl)c3)c2cc1NC(=O)/C=C/CN1CCCCC1 [DACOMITINIB ANHYDROUS]  Population Mitotic Cells (%)        81
5  CCCn1c(=O)c2[nH]c(-c3cnn(Cc4cccc(C(F)(F)F)c4)c3)nc2n(CC)c1=O  Population Mitotic Cells (%)        52
6  CCOc1cc(C(=O)N2CCC(N3CCN(C)CC3)CC2)ccc1Nc1ncc2c(n1)N(C1CCCC1)c1ccccc1C(=O)N2C  Population Mitotic Cells (%)         8

Give Population Mitotic Cells (%) for each of the items listed below.
1. O=C(Nc1ccc(-n2nc(-c3cccnc3)cc2C(F)(F)F)cn1)c1ccc(-c2ccccc2)c(F)c1
2. O=C(Nc1cccnn1)N1CCC(=Cc2cccc(Oc3ccc(C(F)(F)F)cn3)c2)CC1

Found:
1. 39
2. 82

---

tested on: Fibroblast; experiment: Multiplex assay against human fibroblast; assay type: toxicity, cell-based; details: 12 h, 1 µM, compound concentration 1 uM, replicate 2
Property Label: Population Fragmented Nuclei (%)
Give bare numbers, in %.

Recorded results for 4 compounds are shown here.
Compound	Measured On	Reported
O=C(Nc1ccc(-n2nc(-c3cccnc3)cc2C(F)(F)F)cn1)c1ccc(-c2ccccc2)c(F)c1 [BI 2049]	Fibroblast	4
CCOc1cc(C(=O)N2CCC(N3CCN(C)CC3)CC2)ccc1Nc1ncc2c(n1)N(C1CCCC1)c1ccccc1C(=O)N2C	Fibroblast	6
COC(=N)c1nc2ccc3ncnc(Nc4ccc(OC)cc4F)c3c2s1	Fibroblast	50
CCNc1cc(N[C@H]2CC[C@H](O)CC2)nc(Nc2ccc3c(ccn3Cc3ccccc3)c2)n1	Fibroblast	67

Give Population Fragmented Nuclei (%) for each of the items listed below.
1. Cc1cn(-c2cc(NC(=O)c3ccc(C)c(Nc4nccc(-c5cccnc5)n4)c3)cc(C(F)(F)F)c2)cn1 [NILOTINIB]
2. Cc1ccc(C(=O)Nc2cccc(C(F)(F)F)c2)cc1Nc1nc(-c2cccnc2)nc2c1cnn2C
3. CCCS(=O)(=O)c1nc(NC2CC2)cc(-c2ccc3c(ccn3C3CC(C)(C)NC(C)(C)C3)c2)n1
4. CN1CCC(=C2c3ccccc3CC(=O)c3sccc32)CC1.O=C(O)/C=C/C(=O)O [KETOTIFEN FUMARATE]
5. S=C(NCCCc1c[nH]cn1)NCCCN(Cc1ccc(Cl)c(Cl)c1)c1ccc(Br)cn1

Found:
[1, 14, 14, 6, 17]

Give Population Fragmented Nuclei (%) for each of the items listed below.
1. CCCS(=O)(=O)Nc1ccc(F)c(C(=O)c2c[nH]c3ncc(Cl)cc23)c1F [PLX-4720]
2. Cc1ccc2nc(NCCN)c3ncc(C)n3c2c1.O=C(O)C(F)(F)F.O=C(O)C(F)(F)F
3. Cl.Oc1ccc2c3c1O[C@H]1c4[nH]c5c(c4C[C@@]4(O)[C@@H](C2)N(CC2CC2)CC[C@]314)C[C@@]1(O)[C@H]2Cc3ccc(O)c4c3[C@@]1(CCN2CC1CC1)[C@H]5O4
4. CCc1cccc(CC)c1NC(=O)c1nn(C)c2c1CCc1cnc(Nc3ccc(N4CCN(C)CC4)cc3OC)nc1-2
5. CCOc1cc2ncc(C#N)c(Nc3ccc(OCc4ccccn4)c(Cl)c3)c2cc1NC(=O)/C=C/CN(C)C [NERATINIB]
6. Cc1cc(C)c(S(=O)(=O)N(Cc2ccc(-c3cccc(S(C)(=O)=O)c3)cc2)Cc2ccc(C(F)(F)F)o2)c(C)c1

Found:
1. 56
2. 65
3. 3
4. 54
5. 9
6. 15

Lookup: Form field - read-out: Population Fragmented Nuclei (%); system: Fibroblast; submitted item: CN1CCN(C(=O)C(C)(C)c2ccc(C(=O)Nc3cn4cc(-c5cc(C(C)(C)C)cc(C(C)(C)C)c5)ccc4n3)cc2)CC1 [T3-CLK-N]
Found: 44

Cited source: ChEMBL document CHEMBL4689842
